Details: T = 298 K, I = 0.1 M (KCl); charges omitted
Residues, ends and D or L forms follow the SMILES beside them.
ATTRIBUTE MEASURED: logβ [CuH2L]

[[record]]
molecule = "CC[C@H](C)[C@H](NC(=O)[C@H](C)NC(=O)[C@@H](NC(C)=O)C(C)C)C(=O)N[C@@H](C)C(=O)N[C@@H](CC(C)C)C(=O)N[C@@H](CCCCN)C(=O)N[C@@H](C)C(=O)N[C@@H](C)C(=O)N[C@@H](Cc1c[nH]cn1)C(=O)N[C@@H](Cc1ccc(O)cc1)C(=O)N[C@@H](Cc1c[nH]cn1)C(=O)N[C@H](C(=O)N[C@@H](Cc1c[nH]cn1)C(=O)N[C@@H](CCCCN)C(=O)N[C@@H](CCC(=O)O)C(=O)O)[C@@H](C)O [L1, Ac-VAIALKAAHYHTHKE] (Ac-VAIALKAAHYHTHKE-OH)"
endpoint_value = "18.21(3)"

[[record]]
molecule = "CC[C@H](C)[C@H](NC(=O)[C@H](C)NC(=O)[C@@H](N)C(C)C)C(=O)N[C@@H](C)C(=O)N[C@@H](CC(C)C)C(=O)N[C@@H](CCCCN)C(=O)N[C@@H](C)C(=O)N[C@@H](C)C(=O)N[C@@H](Cc1c[nH]cn1)C(=O)N[C@@H](Cc1ccc(O)cc1)C(=O)N[C@@H](Cc1c[nH]cn1)C(=O)N[C@H](C(=O)N[C@@H](Cc1c[nH]cn1)C(=O)N[C@@H](CCCCN)C(=O)N[C@@H](CCC(=O)O)C(N)=O)[C@@H](C)O [L3, VAIALKAAHYHTHKE-NH2] (H-VAIALKAAHYHTHKE-NH2)"
endpoint_value = "33.11(2)"

[[record]]
molecule = "CC[C@H](C)[C@H](NC(=O)[C@H](C)NC(=O)[C@@H](NC(C)=O)C(C)C)C(=O)N[C@@H](C)C(=O)N[C@@H](CC(C)C)C(=O)N[C@@H](CCCCN)C(=O)N[C@@H](C)C(=O)N[C@@H](C)C(=O)N[C@@H](Cc1c[nH]cn1)C(=O)N[C@@H](Cc1ccc(O)cc1)C(=O)N[C@@H](Cc1c[nH]cn1)C(=O)N[C@H](C(=O)N[C@@H](Cc1c[nH]cn1)C(=O)N[C@@H](CCCCN)C(=O)N[C@@H](CCC(=O)O)C(N)=O)[C@@H](C)O [L2, Ac-VAIALKAAHYHTHKE-NH2] (Ac-VAIALKAAHYHTHKE-NH2)"
endpoint_value = "23.06(4)"

[[record]]
molecule = "CC[C@H](C)[C@H](NC(=O)[C@H](C)NC(=O)[C@@H](N)C(C)C)C(=O)N[C@@H](C)C(=O)N[C@@H](CC(C)C)C(=O)N[C@@H](CCCCN)C(=O)N[C@@H](C)C(=O)N[C@@H](C)C(=O)N[C@@H](Cc1c[nH]cn1)C(=O)N[C@@H](Cc1ccc(O)cc1)C(=O)N[C@@H](Cc1c[nH]cn1)C(=O)N[C@H](C(=O)N[C@@H](Cc1c[nH]cn1)C(=O)N[C@@H](CCCCN)C(=O)N[C@@H](CCC(=O)O)C(=O)O)[C@@H](C)O [WT, VAIALKAAHYHTHKE, reference compound] (H-VAIALKAAHYHTHKE-OH)"
endpoint_value = "33.77(4)"

